- Tested on: EC878 E. coli tolC
- Assay comment: broth dilution MIC, E. coli EC878
- Assay type: cell-based
- Run parameters: Escherichia coli
I'd appreciate it if you could supply MIC values for the items below.

*Q* Requested read-out: MIC. Entry: CC[C@H]1OC(=O)[C@H](C)C(=O)C[C@@H](O[C@@H]2OC(C)CC(N(C)C)C2O)[C@@](C)(OC)C[C@@H](C)CN(C(C)=O)[C@H](C)[C@H]2N(CCCCn3cc(-c4ccccn4)nn3)C(=O)O[C@]12C (stereo partly shown) [FSM-30515]
*A* > 32 µg/mL

*Q* Moving on to the next compound: CC[C@H]1OC(=O)[C@H](C)C(=O)C[C@@H](O[C@@H]2OC(C)CC(N(C)C)C2O)[C@@](C)(OC)C[C@@H](C)CN(C(C)=O)[C@H](C)[C@H]2N(CCCCn3cc(-c4nccs4)nn3)C(=O)O[C@]12C (stereo partly shown) [FSM-30503]
*A* > 32 µg/mL

*Q* Moving on to the next compound: CC[C@H]1OC(=O)[C@H](C)C(=O)C[C@@H](O[C@@H]2OC(C)CC(N(C)C)C2O)[C@@](C)(OC)C[C@@H](C)CN[C@H](C)[C@H]2N(CCCCn3cc(-c4ccccn4)nn3)C(=O)O[C@]12C (stereo partly shown) [FSM-30517]
*A* > 32 µg/mL

*Q* Moving on to the next compound: CC[C@H]1OC(=O)[C@H](C)C(=O)C[C@@H](O[C@@H]2OC(C)CC(N(C)C)C2O)[C@@](C)(OC)C[C@@H](C)CN[C@H](C)[C@H]2N(CCCCn3cc(-c4cccc(N)c4)nn3)C(=O)O[C@]12C (stereo partly shown) [FSM-30502]
*A* > 32 µg/mL
